target: cyclooxygenase (Rattus norvegicus); assay: ARBC whole cell cyclooxygenase assay: inhibition of PGF2α formation in A23187-stimulated RBL-1 cells; conditions: RBL-1 whole cells, RIA of PGF2α
Sequence (Q63921 27-602): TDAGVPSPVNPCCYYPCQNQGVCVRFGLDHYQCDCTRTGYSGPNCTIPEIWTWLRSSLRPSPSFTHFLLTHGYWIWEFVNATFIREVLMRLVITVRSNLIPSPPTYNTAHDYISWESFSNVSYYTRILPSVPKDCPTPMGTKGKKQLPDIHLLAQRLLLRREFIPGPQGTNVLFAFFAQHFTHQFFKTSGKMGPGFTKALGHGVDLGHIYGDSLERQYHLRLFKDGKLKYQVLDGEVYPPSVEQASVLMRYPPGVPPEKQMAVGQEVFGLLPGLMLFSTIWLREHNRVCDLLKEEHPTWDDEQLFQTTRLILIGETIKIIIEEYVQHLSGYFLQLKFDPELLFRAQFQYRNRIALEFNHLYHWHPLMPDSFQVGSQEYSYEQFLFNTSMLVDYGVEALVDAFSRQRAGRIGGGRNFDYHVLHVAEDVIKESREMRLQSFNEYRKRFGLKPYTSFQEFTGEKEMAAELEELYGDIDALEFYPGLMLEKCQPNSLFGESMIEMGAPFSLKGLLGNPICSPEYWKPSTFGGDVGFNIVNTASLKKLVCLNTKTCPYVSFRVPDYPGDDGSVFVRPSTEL
Entries and their IC50 values follow.
Report as a plain number; the unit nM is understood.

For CCOC(=O)N(O)C(C)c1cccc(Nc2ccccc2-c2n[nH]c(=O)o2)c1Cl (stereo not drawn) [Example 15] the compound record lists IC50 as 860

// IC50 value for CNC(=O)N(O)C(C)c1cccc(Nc2ccccc2-c2n[nH]c(=O)o2)c1Cl (stereo not drawn) [Example 16] : 360

The recorded IC50 for CC(=O)N(O)C(C)c1cccc(Nc2ccccc2-c2n[nH]c(=S)o2)c1Cl (stereo not drawn) [Example 7] is 1070

Sure, the documented IC50 for CCOC(=O)N(O)C(C)c1cccc(Nc2ccccc2-c2n[nH]c(=S)o2)c1Cl (stereo not drawn) [Example 11] is 910

Input CC(=O)N(O)C(C)c1cccc(Nc2ccccc2-c2n[nH]c(=O)o2)c1Cl (stereo not drawn) [Example 13] . Output IC50: 1880

The values you see were collected from patent US5212189A.
